- STUDY_TARGET: Prostaglandin G/H synthase 2 (Homo sapiens)
- Sequence (P35354 whole entry): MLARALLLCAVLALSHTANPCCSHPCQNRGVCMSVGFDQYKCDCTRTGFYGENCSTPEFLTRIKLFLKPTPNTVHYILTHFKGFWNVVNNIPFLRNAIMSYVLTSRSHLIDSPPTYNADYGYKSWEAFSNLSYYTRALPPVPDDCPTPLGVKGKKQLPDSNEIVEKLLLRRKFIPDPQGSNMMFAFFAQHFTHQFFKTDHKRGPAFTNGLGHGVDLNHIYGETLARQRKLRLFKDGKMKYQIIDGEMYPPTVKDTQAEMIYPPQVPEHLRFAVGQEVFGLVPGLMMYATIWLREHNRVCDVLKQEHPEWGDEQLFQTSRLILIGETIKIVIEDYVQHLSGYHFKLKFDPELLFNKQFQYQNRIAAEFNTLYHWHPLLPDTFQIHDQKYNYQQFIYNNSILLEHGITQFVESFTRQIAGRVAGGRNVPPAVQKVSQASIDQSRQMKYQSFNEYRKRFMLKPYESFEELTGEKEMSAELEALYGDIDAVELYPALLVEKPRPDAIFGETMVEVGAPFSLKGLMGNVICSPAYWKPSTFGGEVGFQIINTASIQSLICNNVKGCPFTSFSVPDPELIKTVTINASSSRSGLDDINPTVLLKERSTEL

{"SMILES_REPRESENTATION": "NCc1c(-c2ccccc2)c(C(=O)O)c2ccccn12", "Ki (nM)": 920}

* * *

- Species: Rattus norvegicus
- EXPERIMENT_SUMMARY: animal or person
- MEASUREMENT_SETUP: Wistar, po, read-out: INH
inhibition in vivo at 10 mg/kg of 50% or higher: criterion met. Under 50%: criterion not met.

{"SMILES_REPRESENTATION": "NCc1c(-c2ccc(F)cc2)c(C(=O)O)c2ccccn12", "CLASS_ASSIGNMENT": "criterion met"}
{"SMILES_REPRESENTATION": "NCc1c(-c2ccc3c(c2)OCO3)c(C(=O)O)c2ccccn12", "CLASS_ASSIGNMENT": "criterion met"}
{"SMILES_REPRESENTATION": "NCc1c(-c2ccc(C(F)(F)F)cc2)c(C(=O)O)c2ccccn12", "CLASS_ASSIGNMENT": "criterion not met"}
{"SMILES_REPRESENTATION": "CCCCc1c(C(=O)O)c2ccccn2c1CN", "CLASS_ASSIGNMENT": "criterion not met"}
{"SMILES_REPRESENTATION": "NCc1c(-c2ccccc2)c(C(=O)O)c2ccccn12", "CLASS_ASSIGNMENT": "criterion met"}
{"SMILES_REPRESENTATION": "CCc1c(C(=O)O)c2ccccn2c1CN", "CLASS_ASSIGNMENT": "criterion not met"}
{"SMILES_REPRESENTATION": "Cc1c(C(=O)O)c2ccccn2c1CN", "CLASS_ASSIGNMENT": "criterion not met"}

* * *

Reported UI values are given for each entry in this list.
- Species on record: Rattus norvegicus
- EXPERIMENT_SUMMARY: Gastrointestinal toxicity in adjuvant-induced Wistar rat arthritis model assessed as ulcer index treated for 7 days measured on day 21 post arthritis induction
- MEASUREMENT_SETUP: in vivo, 168 h

{"COMPOUND": "NCc1c(-c2ccccc2)c(C(=O)O)c2ccccn12", "UI": 10}
{"COMPOUND": "O=C(O)Cc1ccccc1Nc1c(Cl)cccc1Cl [DICLOFENAC]", "UI": 46}
{"COMPOUND": "Cc1ccc(-c2cc(C(F)(F)F)nn2-c2ccc(S(N)(=O)=O)cc2)cc1 [CELECOXIB]", "UI": 53}
{"COMPOUND": "CC(c1cc2ccccc2s1)N(O)C(N)=O (centres undefined) [ZILEUTON]", "UI": 52}
